# subject_of_test: JAK1 (Homo sapiens (Human), UniProt P23458)
# Sequence (P23458 whole entry): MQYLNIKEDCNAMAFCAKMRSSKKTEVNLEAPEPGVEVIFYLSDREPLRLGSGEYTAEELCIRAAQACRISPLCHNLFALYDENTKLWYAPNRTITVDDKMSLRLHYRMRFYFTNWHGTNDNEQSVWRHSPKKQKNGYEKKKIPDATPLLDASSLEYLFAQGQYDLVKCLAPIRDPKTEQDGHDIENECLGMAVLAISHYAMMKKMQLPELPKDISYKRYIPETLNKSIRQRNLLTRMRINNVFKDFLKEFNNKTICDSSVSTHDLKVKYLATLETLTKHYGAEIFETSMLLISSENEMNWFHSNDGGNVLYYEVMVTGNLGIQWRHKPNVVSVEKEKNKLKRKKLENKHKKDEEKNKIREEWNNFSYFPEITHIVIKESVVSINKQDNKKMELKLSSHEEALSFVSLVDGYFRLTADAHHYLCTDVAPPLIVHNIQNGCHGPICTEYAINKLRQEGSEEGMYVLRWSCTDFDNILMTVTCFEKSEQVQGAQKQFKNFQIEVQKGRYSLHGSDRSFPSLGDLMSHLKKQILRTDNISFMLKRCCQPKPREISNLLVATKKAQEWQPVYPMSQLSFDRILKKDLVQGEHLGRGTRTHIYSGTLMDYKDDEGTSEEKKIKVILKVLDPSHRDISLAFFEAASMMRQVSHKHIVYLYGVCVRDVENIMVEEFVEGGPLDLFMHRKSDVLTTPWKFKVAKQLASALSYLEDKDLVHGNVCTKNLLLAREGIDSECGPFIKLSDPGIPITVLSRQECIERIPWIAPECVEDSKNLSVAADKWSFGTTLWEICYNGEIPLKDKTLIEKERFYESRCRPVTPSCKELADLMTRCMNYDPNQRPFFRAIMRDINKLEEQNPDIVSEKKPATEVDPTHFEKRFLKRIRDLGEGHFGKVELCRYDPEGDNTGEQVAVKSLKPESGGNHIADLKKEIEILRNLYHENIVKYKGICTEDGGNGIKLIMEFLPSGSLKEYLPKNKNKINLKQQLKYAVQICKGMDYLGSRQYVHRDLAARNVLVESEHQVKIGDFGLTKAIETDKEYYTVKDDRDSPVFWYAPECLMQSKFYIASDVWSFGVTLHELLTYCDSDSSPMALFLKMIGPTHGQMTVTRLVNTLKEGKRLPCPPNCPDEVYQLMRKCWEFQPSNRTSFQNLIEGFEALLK
# assay: JAK enzymatic assay (peptide mobility shift), JAK1
# condition_label: recombinant JAK1 20 nM, IRS-1 peptide, 240 minutes
pIC50: −log10 of the molar value.
value_kind: pIC50

Please review the following examples before continuing.
- compound: "CN(c1ncnc2[nH]ccc12)[C@H]1CC[C@H](CS(=O)(=O)N2CC(S(=O)(=O)CC3CC3)C2)CC1"
  observed_value: 7.97
- compound: "COC1CCN(S(=O)(=O)C[C@H]2CC[C@H](N(C)c3ncnc4[nH]ccc34)CC2)CC1"
  observed_value: 7.66
- compound: "CO[C@@H]1CCN(S(=O)(=O)C[C@H]2CC[C@H](N(C)c3ncnc4[nH]ccc34)CC2)C1"
  observed_value: 7.92
- compound: "CN(c1ncnc2[nH]ccc12)[C@H]1CC[C@H](CS(=O)(=O)N2CCC(C(C)(C)O)CC2)CC1"
  observed_value: 7.87
- compound: "Cc1nnc(C2CCCN(S(=O)(=O)C[C@H]3CC[C@H](N(C)c4ncnc5[nH]ccc45)CC3)C2)o1 (stereo partly shown)"
  observed_value: 8.01

I: CN(c1ncnc2[nH]ccc12)[C@H]1CC[C@H](CS(=O)(=O)N2CCC[C@H]2CN2CCCC2)CC1
II: CN(c1ncnc2[nH]ccc12)[C@H]1CC[C@H](CS(=O)(=O)N2CCC(C#N)CC2)CC1
Enquiry: Would you let me know which has the greater pIC50 value, I or II ? Mark your answer with the label of the selected entry.
Return: I
(I: 8.33, II: 7.78)

* * *

# subject_of_test: JAK1 (Homo sapiens (Human))
# assay: JAK enzymatic assay (peptide mobility shift), JAK1
# condition_label: recombinant JAK1 20 nM, IRS-1 peptide, 240 minutes
# Experimental: Recombinant JAK1 (Catalog Number PV4775), JAK2 (Catalog Number PV4210) and JAK3 (Catalog Number PV3855) were purchased from (Invitrogen Corporation, Madison, Wis.). […] Compounds were diluted serially in 100% dimethyl sulfoxide and tested in an 11 point dose response in duplicate or quadruplicate (200 nl of compound/DMSO was added per 10 L reaction). […] Data was analyzed using Hits Well Analyzer Software from (Caliper Life Sciences) to obtain the amount of product formed. […]
pIC50: −log10 of the molar value.
value_kind: pIC50

Some entries whose results are on file:
- molecule: "CN(c1ncnc2[nH]ccc12)[C@H]1CC[C@H](CS(=O)(=O)N2CC[C@H](c3ccccc3F)C2)CC1"
  subject_of_test: "JAK1 (Homo sapiens (Human))"
  pIC50: 8.26
- molecule: "CCc1ccc(COC[C@H]2CCN(S(=O)(=O)C[C@H]3CC[C@H](N(C)c4ncnc5[nH]ccc45)CC3)C2)nc1"
  subject_of_test: "JAK1 (Homo sapiens (Human))"
  pIC50: 7.76
- molecule: "CN(c1ncnc2[nH]ccc12)[C@H]1CC[C@H](CS(=O)(=O)N2C[C@@H](O)[C@H](c3ccccc3)C2)CC1"
  subject_of_test: "JAK1 (Homo sapiens (Human))"
  pIC50: 8.28

a: CN(c1ncnc2[nH]ccc12)[C@H]1CC[C@H](CS(=O)(=O)N2CCCC(COc3ccc(F)cc3)C2)CC1 (stereo partly drawn)
b: CN(c1ncnc2[nH]ccc12)[C@H]1CC[C@H](CS(=O)(=O)N2CCC[C@@H](OP(=O)(O)O)C2)CC1
Enquiry: // which entry has the larger pIC50 value, a or b ? Write the label of whichever entry you select.
Return: b

1: CN(c1ncnc2[nH]ccc12)[C@H]1CC[C@H](CS(=O)(=O)N2CCC[C@H](C(N)=O)C2)CC1
2: CN(c1ncnc2[nH]ccc12)[C@H]1CC[C@H](CS(=O)(=O)N2CCC2)CC1
Enquiry: Hello, I am sorting some records. Could you say if 1 or 2 has the smaller pIC50 value? Answer by quoting the chosen item's label.
Return: 2

P: CN(c1ncnc2[nH]ccc12)[C@H]1CC[C@H](CS(=O)(=O)N2CCC(c3nc(CS(C)(=O)=O)no3)CC2)CC1
Q: CN(c1ncnc2[nH]ccc12)[C@H]1CC[C@H](CS(=O)(=O)N2CC[C@H](OCC(=O)N3CCCC3)C2)CC1
R: CN(c1ncnc2[nH]ccc12)[C@H]1CC[C@H](CS(=O)(=O)N2CCCC(C(=O)O)C2)CC1 (stereo partly drawn)
Enquiry: Rank items: key pIC50, increasing. I'd appreciate it if you listed the labels in the requested order.
Return: P, Q, R
(P: 8.08, Q: 8.36, R: 8.67)

Where do the numbers come from? From patent US8633206B2.
